Below, each entry is listed alongside its reported normalized growth.
# protocol notes: chemical genetic growth profiling, strain panel (AID 1159580);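 also: tested at 20 µM; growth read once vehicle control cultures reached saturation at 30 °C; 1 = growth at the plate median or of vehicle wells; lower values mean less growth of the strain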
# condition notes: S. cerevisiae deletion strains, growth OD, locus YLR384C, strain iki3, stronger effect = lower value
Out of some 5,500 compounds screened, about 2,000 (36%) were called active. About 18% were inconclusive and are not listed. This is one part of the list.

molecule	normalized growth
CN1CCC(OC(c2ccccc2)c2ccccc2)CC1	0.994
COC(=O)C[C@H]1C2(C)CC34OC5(C)O[C@@]6([C@H](OC(C)=O)C(OC(C)=O)[C@]7(C)C(/C(=C(/O)C(C)C)C(=O)O[C@H]7c7ccoc7)[C@@]6(O5)[C@H](OC(C)=O)[C@@]3(O)C2OC(=O)C(C)C)[C@]14C (stereo partly drawn)	0.994
COC(=O)C[C@H]1C2(C)CC34OC5(C)O[C@@]6([C@H](OC)C(OC(=O)C(C)C)[C@]7(C)C(/C(=C(/OC)C(C)C)C(=O)O[C@H]7c7ccoc7)[C@@]6(O5)[C@H](OC)[C@@]3(OC)C2OC(C)=O)[C@]14C (stereo partly drawn)	0.984
COc1cc(CNC(=O)CCCC/C=C/C(C)C)ccc1O	0.975
CC(=O)S[C@@H]1CC2=CC(=O)CC[C@]2(C)[C@H]2CC[C@@]3(C)[C@@H](CC[C@@]34CCC(=O)O4)C12 (stereo partly drawn)	1.01
C[C@]12CCC(=O)C=C1C=CC1C2CC[C@@]2(C)C1CC[C@@]21CCC(=O)O1 (stereo partly drawn)	0.993
Clc1ccc(C(OCCN2CCCCC2)c2ccccc2)cc1 (stereo not drawn)	1.01
CC1(O)CC2C(CC1O)C2(C)C (stereo not drawn)	0.971
CCC(C)C(=O)O[C@@H]1C[C@@]2(C)[C@H](c3ccoc3)OC(=O)CC23OC2(C)O[C@]14[C@]1(C)[C@@H](CC(=O)OC)C5(C)CC1(O)[C@](O)(C5OC(=O)C1(C)OC1C)[C@@H](OC(C)=O)[C@]34O2 (stereo partly drawn)	1.01
Cc1ccccc1C(OCCN(C)C)c1ccccc1 (stereo not drawn)	1.01
COc1ccc([C@H]2Oc3c(I)c(OC)cc(OC)c3C[C@@H]2O)cc1OC	1.01
COc1cc2nc(N(C)CCCNC(=O)C3CCCO3)nc(N)c2cc1OC (stereo not drawn)	0.988
C=CC[C@]1(O)CCC2C3CCC4=CC(=O)CCC4=C3C=C[C@@]21C (stereo partly drawn)	1
CC#CC1(O)CCC2C3CCC4=CC(=O)CCC4=C3C(c3ccc(N(C)C)cc3)CC21C (stereo not drawn)	0.996
CCCCCCCCC(=O)NCc1ccc(O)c(OC)c1	1
CCCc1cc(C(N)=S)ccn1	0.971
N[C@@H](Cc1ccc(N(CCCl)CCCl)cc1)C(=O)O	0.985
Oc1cc(O)c2c(c1)O[C@H](c1ccc(O)c(O)c1)[C@@H](O)C2	0.997
